Biological target: T1, human CD33 extracellular domain (human, UniProt P20138 18-259)
T1 construct: soluble monomeric ECD; also called human CD33 ECD; hCD33
Experiment: SPR, Fab captured, 37C;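 further: fabs captured on an anti-Fab surface, soluble monomeric CD33 ECD flowed over at several concentrations, double-referenced curves fit to a 1:1 binding model, KD taken as koff/kon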
Reported kon is given for each of the following binders.
Please state the figure in M⁻¹ s⁻¹; there is no need to write the unit.

# annotated cases, reported kon shown
>  <binder>
ADI-11825 Fab (Fab, V domains shown, Fab fragment; also called Ab25) VH: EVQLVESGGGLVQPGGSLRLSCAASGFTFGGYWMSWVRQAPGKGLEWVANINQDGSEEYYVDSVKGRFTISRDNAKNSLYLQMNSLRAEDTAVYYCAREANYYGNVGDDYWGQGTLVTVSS VL: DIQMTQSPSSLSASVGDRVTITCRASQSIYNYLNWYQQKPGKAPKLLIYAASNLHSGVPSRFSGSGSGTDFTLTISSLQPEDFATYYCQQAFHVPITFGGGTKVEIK

>  <kon / M⁻¹ s⁻¹>
2.13e+06

$$$$
>  <binder>
ADI-11826 Fab (Fab, V domains shown, Fab fragment; also called Ab26) VH: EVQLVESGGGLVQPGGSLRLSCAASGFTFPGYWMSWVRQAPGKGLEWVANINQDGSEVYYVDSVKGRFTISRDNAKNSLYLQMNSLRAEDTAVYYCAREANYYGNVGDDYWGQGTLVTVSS VL: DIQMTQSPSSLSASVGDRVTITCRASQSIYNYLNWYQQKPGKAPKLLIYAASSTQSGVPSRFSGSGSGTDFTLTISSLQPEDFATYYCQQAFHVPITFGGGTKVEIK

>  <kon / M⁻¹ s⁻¹>
1.76e+06

$$$$

# input for lookup
Sample ADI-11815 Fab (Fab, V domains shown, Fab fragment; also called Ab7) VH: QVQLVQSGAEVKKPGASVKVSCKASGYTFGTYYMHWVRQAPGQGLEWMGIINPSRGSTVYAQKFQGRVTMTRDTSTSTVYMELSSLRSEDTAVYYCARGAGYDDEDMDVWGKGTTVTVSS VL: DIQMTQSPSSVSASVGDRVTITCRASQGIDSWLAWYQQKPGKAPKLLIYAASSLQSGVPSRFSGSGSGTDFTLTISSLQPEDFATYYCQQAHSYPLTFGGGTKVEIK ; kon observed: 339000

Data provenance: patent US20220380459A1
